Listing of entries alongside the reported ED10.
System: Oryza sativa
Assay: Pre-emergence phytotoxicity against Oryza sativa cv. Koshihikari (rice) assessed as phytotoxic crop injury visual ratings measured after 14 days post treatment
Assay type: organism-based
Details: in vivo, 336 h
# value in gAi/ha; strip the unit string

>  <COMPOUND>
C#CCOc1cc(N2C(=O)OC(=C(C)C)C2=O)c(F)cc1Cl

>  <UNITS>
gAi/ha

>  <ED10>
6.25

$$$$

We now examine a further compound.
[Q] State its ED10 on Oryza sativa: C=CCOc1cc(N2C(=O)OC(=C(C)C)C2=O)c(F)cc1Cl
[A] 50

====

Tested on: Echinochloa crus-galli
Test: Pre-emergence herbicidal activity against Echinochloa crus-galli (barnyard grass) assessed as phytotoxic weed control visual ratings at 500 g ai/ha measured after 14 days post treatment under upland field conditions
Format: functional
Threshold check on Phytotoxicity: strictly below 30% is 1; on or above 30% is 0.

Some entries whose results are on file:
>  <COMPOUND>
CCCCCCOc1cc(N2C(=O)OC(=C(C)C)C2=O)c(F)cc1Cl

>  <CLASS>
1

$$$$
>  <COMPOUND>
CC(C)=C1OC(=O)N(c2cc(O)c(Cl)cc2F)C1=O

>  <CLASS>
1

$$$$
>  <COMPOUND>
COc1cc(N2C(=O)OC(=C(C)C)C2=O)c(F)cc1Cl

>  <CLASS>
0

$$$$
>  <COMPOUND>
CC(C)=C1OC(=O)N(c2cc(OC3CCCCC3)c(Cl)cc2F)C1=O

>  <CLASS>
1

$$$$
>  <COMPOUND>
CC(C)Oc1cc(-n2nc(C(C)(C)C)oc2=O)c(Cl)cc1Cl

>  <CLASS>
0

$$$$
>  <COMPOUND>
CC(C)=C1OC(=O)N(c2cc(OC3CCCC3)c(Cl)cc2F)C1=O

>  <CLASS>
0

$$$$
>  <COMPOUND>
CCOc1cc(N2C(=O)OC(=C(C)C)C2=O)c(F)cc1Cl

>  <CLASS>
0

$$$$
>  <COMPOUND>
C#CCOc1cc(N2C(=O)OC(=C(C)C)C2=O)c(F)cc1Cl

>  <CLASS>
0

$$$$

[Q] Is it true that Phytotoxicity reported for C#CCSc1cc(N2C(=O)OC(=C(C)C)C2=O)c(F)cc1Cl is less than 30%?
[A] 0

[Q] State whether 30% exceeds Phytotoxicity recorded for CC(C)=C1OC(=O)N(c2cc(OC(C)C)c(Cl)cc2F)C1=O .
[A] 0

[Q] # TODO verify Phytotoxicity < 30% strictly for this compound: CCC(C)Oc1cc(N2C(=O)OC(=C(C)C)C2=O)c(F)cc1Cl (stereo not drawn)
[A] 1

====

Test system: Oryza sativa
Test: Pre-emergence phytotoxicity against Oryza sativa cv. Koshihikari (rice) assessed as phytotoxic crop injury visual ratings at 25 g ai/ha measured after 14 days post treatment under flooded conditions
Assay type: organism-based
Conditions: in vivo, other, 336 h
Below, each entry is listed alongside its reported Phytotoxicity.
Give the value, in units of %, as a plain number.

>  <MOLECULE>
CC(C)=C1OC(=O)N(c2cc(O)c(Cl)cc2F)C1=O

>  <Phytotoxicity / %>
0

$$$$
>  <MOLECULE>
CCCCCCOc1cc(N2C(=O)OC(=C(C)C)C2=O)c(F)cc1Cl

>  <Phytotoxicity / %>
0

$$$$
>  <MOLECULE>
CC(C)=C1OC(=O)N(c2cc(OC3CCCCC3)c(Cl)cc2F)C1=O

>  <Phytotoxicity / %>
0

$$$$
>  <MOLECULE>
CC(C)=C1OC(=O)N(c2cc(OC3CCCC3)c(Cl)cc2F)C1=O [PENTOXAZONE]

>  <Phytotoxicity / %>
0

$$$$
>  <MOLECULE>
CCOc1cc(N2C(=O)OC(=C(C)C)C2=O)c(F)cc1Cl

>  <Phytotoxicity / %>
10

$$$$

[Q] For the molecule C#CCOc1cc(N2C(=O)OC(=C(C)C)C2=O)c(F)cc1Cl , what Phytotoxicity is on record?
[A] 30

[Q] Name the recorded Phytotoxicity for C#CC(C)Oc1cc(N2C(=O)OC(=C(C)C)C2=O)c(F)cc1Cl (stereo unspecified) .
[A] 20

[Q] # lookup: Phytotoxicity of CC(C)Oc1cc(-n2nc(C(C)(C)C)oc2=O)c(Cl)cc1Cl [OXADIAZON]
[A] 0

====

Test system: Elatine triandra
Experiment: Pre-emergence herbicidal activity against Elatine triandra assessed as phytotoxic weed control visual ratings at 2.5 kg ai/ha measured after 14 days post treatment under flooded conditions
Assay type: functional
Measured Phytotoxicity of individual entries
Give your result in % as a bare value.

Example entries begin here.
>  <MOLECULE>
CC(C)=C1OC(=O)N(c2ccccc2Cl)C1=O

>  <TARGET_OF_ASSAY>
Elatine triandra

>  <Phytotoxicity [%]>
0

$$$$
>  <MOLECULE>
CC(C)=C1OC(=O)N(c2c(Cl)cc(Cl)cc2Cl)C1=O

>  <TARGET_OF_ASSAY>
Elatine triandra

>  <Phytotoxicity [%]>
100

$$$$
>  <MOLECULE>
CC(C)=C1OC(=O)N(c2cccc(Cl)c2)C1=O

>  <TARGET_OF_ASSAY>
Elatine triandra

>  <Phytotoxicity [%]>
30

$$$$

[Q] Could you tell me which Phytotoxicity is on file for C=CC1(C)OC(=O)N(c2cc(Cl)cc(Cl)c2)C1=O (centres undefined) ?
[A] 50

[Q] What does the record list as Phytotoxicity for CC(C)=C1OC(=O)N(c2ccc(Cl)cc2Cl)C1=O ?
[A] 100

[Q] Need Phytotoxicity of CC(C)=C1OC(=O)N(c2ccc(Cl)cc2)C1=O , thanks.
[A] 100

[Q] Which measured Phytotoxicity value corresponds to CC(C)=C1OC(=O)N(c2cc(Cl)cc(Cl)c2)C1=O ?
[A] 50

[Q] Look at this molecule and give its reported Phytotoxicity. CC(C)=C1OC(=O)N(c2ccc(Cl)c(Cl)c2)C1=O
[A] 100

[Q] Return reported Phytotoxicity; argument: C=C(C)C1(C)OC(=O)N(c2cc(Cl)cc(Cl)c2)C1=O (centres undefined)
[A] 60

====

Tested on: Oryza sativa
Experiment: Pre-emergence phytotoxicity against Oryza sativa cv. Koshihikari (rice) assessed as phytotoxic crop injury visual ratings at 2.5 kg ai/ha measured after 14 days post treatment under flooded conditions
Format: organism-based
Conditions: in vivo, other, 336 h
Parameter: Phytotoxicity. Scope: all listed entries.
Record the value in %, omitting the unit from your answer.

See these solved cases before continuing.
>  <COMPOUND>
CC(C)=C1OC(=O)N(c2c(Cl)cc(Cl)cc2Cl)C1=O

>  <TARGET_OF_ASSAY>
Oryza sativa

>  <Phytotoxicity (%)>
0

$$$$
>  <COMPOUND>
CC(C)=C1OC(=O)N(c2cc(Cl)cc(Cl)c2)C1=O

>  <TARGET_OF_ASSAY>
Oryza sativa

>  <Phytotoxicity (%)>
0

$$$$
>  <COMPOUND>
C=CC1(C)OC(=O)N(c2cc(Cl)cc(Cl)c2)C1=O (centres undefined) [VINCLOZOLIN]

>  <TARGET_OF_ASSAY>
Oryza sativa

>  <Phytotoxicity (%)>
0

$$$$
>  <COMPOUND>
CC(C)=C1OC(=O)N(c2ccc(Cl)cc2Cl)C1=O

>  <TARGET_OF_ASSAY>
Oryza sativa

>  <Phytotoxicity (%)>
20

$$$$
>  <COMPOUND>
CC(C)=C1OC(=O)N(c2ccc(Cl)c(Cl)c2)C1=O

>  <TARGET_OF_ASSAY>
Oryza sativa

>  <Phytotoxicity (%)>
10

$$$$

[Q] Sample CC(C)=C1OC(=O)N(c2ccccc2Cl)C1=O — what was its Phytotoxicity?
[A] 0

[Q] Query: Phytotoxicity; subject: CC(C)=C1OC(=O)N(c2cccc(Cl)c2)C1=O
[A] 0

[Q] // Phytotoxicity lookup, key: CC(C)=C1OC(=O)N(c2ccc(Cl)cc2)C1=O
[A] 30

[Q] Entry C=C(C)C1(C)OC(=O)N(c2cc(Cl)cc(Cl)c2)C1=O (centres undefined) has what Phytotoxicity?
[A] 0

====

Test system: Oryza sativa
Experiment: Post-emergence phytotoxicity against Oryza sativa cv. Koshihikari (rice) assessed as phytotoxic crop injury visual ratings measured after 14 days post treatment
Assay type: organism-based
Details: in vivo, 336 h
REPORTED_ENDPOINT: log10(ED10) (log10 of the value in gAi/ha)
Values reflect log10 of reported ED10 (gAi/ha).

>  <COMPOUND>
CC(C)Oc1cc(-n2nc(C(C)(C)C)oc2=O)c(Cl)cc1Cl

>  <log10(ED10)>
2.60

$$$$
>  <COMPOUND>
CC(C)=C1OC(=O)N(c2cc(OC(C)C)c(Cl)cc2F)C1=O

>  <log10(ED10)>
2.18

$$$$
>  <COMPOUND>
C#CCSc1cc(N2C(=O)OC(=C(C)C)C2=O)c(F)cc1Cl

>  <log10(ED10)>
2.30

$$$$
>  <COMPOUND>
C=CCOc1cc(N2C(=O)OC(=C(C)C)C2=O)c(F)cc1Cl

>  <log10(ED10)>
2.00

$$$$
>  <COMPOUND>
CC(C)=C1OC(=O)N(c2cc(OC3CCCC3)c(Cl)cc2F)C1=O

>  <log10(ED10)>
2.60

$$$$
>  <COMPOUND>
C#CCOc1cc(N2C(=O)OC(=C(C)C)C2=O)c(F)cc1Cl

>  <log10(ED10)>
1.40

$$$$
>  <COMPOUND>
C#CC(C)Oc1cc(N2C(=O)OC(=C(C)C)C2=O)c(F)cc1Cl (stereo not drawn)

>  <log10(ED10)>
1.10

$$$$

Next up:
[Q] Recorded log10(ED10) of CC(C)=C1OC(=O)N(c2cc(OC3CCCCC3)c(Cl)cc2F)C1=O , please.
[A] 2.30
